Listed next: entries and their corresponding IVIS.
System: mice
Experiment: In vivo delivery of FLuc-mRNA lipid nanoparticles in mice, in vivo imaging (IVIS)
Details: IV, spleen; DMG-PEG2000:DSPC:Chol:compound 1.40:11.15:38.95:48.50, N/P 30; Fluc-mRNA
MEASURED ATTRIBUTE: IVIS

{"COMPOUND": "CCCCCCC(CCCCCC)C(=O)OCCCCOC(=O)C(O)CN(CCCN(C)CCCN(CC(O)C(=O)OCCCCOC(=O)C(CCCCCC)CCCCCC)CC(O)C(=O)OCCCCOC(=O)C(CCCCCC)CCCCCC)CC(O)C(=O)OCCCCOC(=O)C(CCCCCC)CCCCCC (stereo not shown) [Compound L0294]", "MEASURED ATTRIBUTE": "IVIS", "MEASURED RESULT": "7.28E+07"}
{"COMPOUND": "CCCCCCOC(C)OCCCCCCOC(=O)C(O)CN(CCN(C)CCN(CC(O)C(=O)OCCCCCCOC(C)OCCCCCC)CC(O)C(=O)OCCCCCCOC(C)OCCCCCC)CC(O)C(=O)OCCCCCCOC(C)OCCCCCC (stereo not shown) [Compound L0333]", "MEASURED ATTRIBUTE": "IVIS", "MEASURED RESULT": "3.63E+07"}
{"COMPOUND": "CCCCCCCCCCOC(=O)C(O)CN(CCN(C)CCN(CC(O)C(=O)OCCCCCCCCCC)CC(O)C(=O)OCCCCCCCCCC)CC(O)C(=O)OCCCCCCCCCC (stereo not shown) [Compound L0337]", "MEASURED ATTRIBUTE": "IVIS", "MEASURED RESULT": "2.87E+07"}
{"COMPOUND": "CCCCCCCC/C=C\\CCCCCCCCNC(=O)C(O)CN(CCN(C)CCN(CC(O)C(=O)NCCCCCCCC/C=C\\CCCCCCCC)CC(O)C(=O)NCCCCCCCC/C=C\\CCCCCCCC)CC(O)C(=O)NCCCCCCCC/C=C\\CCCCCCCC (stereo not shown) [Compound L0299]", "MEASURED ATTRIBUTE": "IVIS", "MEASURED RESULT": "5.50E+06"}
{"COMPOUND": "CCCCCCCCC(CCCCCC)C(=O)OCCCCOC(=O)C(O)CN(CCN(C)CCN(CC(O)C(=O)OCCCCOC(=O)C(CCCCCC)CCCCCCCC)CC(O)C(=O)OCCCCOC(=O)C(CCCCCC)CCCCCCCC)CC(O)C(=O)OCCCCOC(=O)C(CCCCCC)CCCCCCCC (stereo not shown) [Compound L0298]", "MEASURED ATTRIBUTE": "IVIS", "MEASURED RESULT": "4.21E+07"}
{"COMPOUND": "CC/C=C\\CCOCOCCCCCCOC(=O)C(O)CN(CCN(C)CCN(CC(O)C(=O)OCCCCCCOCOCC/C=C\\CC)CC(O)C(=O)OCCCCCCOCOCC/C=C\\CC)CC(O)C(=O)OCCCCCCOCOCC/C=C\\CC (stereo not shown) [Compound L0334]", "MEASURED ATTRIBUTE": "IVIS", "MEASURED RESULT": "6.35E+07"}
{"COMPOUND": "CCCCCCCCCCCCNC(=O)C(O)CNCCCN(C)CCCN(CC(O)C(=O)NCCCCCCCCCCCC)CC(O)C(=O)NCCCCCCCCCCCC (stereo not shown) [Compound L0288]", "MEASURED ATTRIBUTE": "IVIS", "MEASURED RESULT": "1.45E+06"}
{"COMPOUND": "CCCCCCCCC(CCCCCC)C(=O)OCCCCCCOC(=O)C(O)CN(C)CCN(C)CCN(C)CC(O)C(=O)OCCCCCCOC(=O)C(CCCCCC)CCCCCCCC (stereo not shown) [Compound L0292]", "MEASURED ATTRIBUTE": "IVIS", "MEASURED RESULT": "7.53E+06"}
{"COMPOUND": "CCCCCCCCCCCCCCOC(=O)C(O)CN(CCN(C)CCN(CC(O)C(=O)OCCCCCCCCCCCCCC)CC(O)C(=O)OCCCCCCCCCCCCCC)CC(O)C(=O)OCCCCCCCCCCCCCC (stereo not shown) [Compound L0338]", "MEASURED ATTRIBUTE": "IVIS", "MEASURED RESULT": "6.73E+06"}
{"COMPOUND": "CCCCCCCCCCNC(=O)C(O)CN(CCCN(CCCN(CC(O)C(=O)NCCCCCCCCCC)CC(O)C(=O)NCCCCCCCCCC)C(CO)CO)CC(O)C(=O)NCCCCCCCCCC (stereo not shown) [Compound L0287]", "MEASURED ATTRIBUTE": "IVIS", "MEASURED RESULT": "3.72E+06"}

###

Listed next: entries and their corresponding % of organ targeting.
System: mice
Experiment: In vivo delivery of FLuc-mRNA lipid nanoparticles in mice, in vivo imaging (IVIS)
Conditions: Fluc-mRNA LNP; route IV; organ: lung; formulation, molar ratio and N/P as in the table

{"COMPOUND": "CCCCCCC(CCCCC)C(=O)OCCCCNC(=O)C(O)CN(CCCN(C)CCCCN(CCC(O)C(=O)NCCOC(=O)C(CCCCCC)CCCCCC)C(O)C(=O)NCCCCOC(=O)C(CCCCCC)CCCCCC)CC(O)C(=O)NCCCCOC(=O)C(CCCCC)CCCCCC (stereo not drawn) [Compound L0367]", "% of organ targeting": "45.55%"}
{"COMPOUND": "CCCCCCCCCCCCCCN(C)C(=O)C(O)CN(CCCN(C)CCCN(CC(O)C(=O)N(C)CCCCCCCCCCCCCC)CC(O)C(=O)N(C)CCCCCCCCCCCCCC)CC(O)C(=O)N(C)CCCCCCCCCCCCCC (stereo not drawn) [Compound L0355]", "% of organ targeting": "84.86%"}
{"COMPOUND": "CCCCCCC(CCCCCC)C(=O)OCCCCNC(=O)C(O)CN(CCN(C)CCN(CC(O)C(=O)NCCCCOC(=O)C(CCCCCC)CCCCCC)CC(O)C(=O)NCCCCOC(=O)C(CCCCCC)CCCCCC)CC(O)C(=O)NCCCCOC(=O)C(CCCCCC)CCCCCC (stereo not drawn) [Compound L0368]", "% of organ targeting": "7.99%"}

###

Tested on: mice
Test: In vivo delivery of FLuc-mRNA lipid nanoparticles in mice, in vivo imaging (IVIS)
Conditions: IV, liver; DMG-PEG2000:DSPC:Chol:compound 1.40:11.15:38.95:48.50, N/P 30; Fluc-mRNA
Listed next: entries and their corresponding IVIS.
MEASURED ATTRIBUTE: IVIS

{"COMPOUND": "CCCCCCCCCCCCNC(=O)C(O)CNCCCN(C)CCCN(CC(O)C(=O)NCCCCCCCCCCCC)CC(O)C(=O)NCCCCCCCCCCCC (stereo not shown) [Compound L0288]", "MEASURED RESULT": "5.25E+05"}
{"COMPOUND": "CCCCCCC(CCCCCC)C(=O)OCCCCCCOC(=O)C(O)CN(C)CCN(C)CCN(C)CC(O)C(=O)OCCCCCCOC(=O)C(CCCCCC)CCCCCC (stereo not shown) [Compound L0291]", "MEASURED RESULT": "3.30E+06"}
{"COMPOUND": "CCCCCCC(CCCCCC)C(=O)OCCCCOC(=O)C(O)CN(CCCN(C)CCCN(CC(O)C(=O)OCCCCOC(=O)C(CCCCCC)CCCCCC)CC(O)C(=O)OCCCCOC(=O)C(CCCCCC)CCCCCC)CC(O)C(=O)OCCCCOC(=O)C(CCCCCC)CCCCCC (stereo not shown) [Compound L0294]", "MEASURED RESULT": "5.13E+07"}
{"COMPOUND": "CCCC/C=C\\CCOCOCCCCOC(=O)C(O)CN(CCN(C)CCN(CC(O)C(=O)OCCCCOCOCC/C=C\\CCCC)CC(O)C(=O)OCCCCOCOCC/C=C\\CCCC)CC(O)C(=O)OCCCCOCOCC/C=C\\CCCC (stereo not shown) [Compound L0335]", "MEASURED RESULT": "1.92E+07"}
{"COMPOUND": "CCCCCCCCCCCCCCOC(=O)C(O)CN(CCN(C)CCN(CC(O)C(=O)OCCCCCCCCCCCCCC)CC(O)C(=O)OCCCCCCCCCCCCCC)CC(O)C(=O)OCCCCCCCCCCCCCC (stereo not shown) [Compound L0338]", "MEASURED RESULT": "8.81E+05"}
{"COMPOUND": "CCCCCCCC/C=C\\CCCCCCCCNC(=O)C(O)CN(CCCN(C)CCCN(CC(O)C(=O)NCCCCCCCC/C=C\\CCCCCCCC)CC(O)C(=O)NCCCCCCCC/C=C\\CCCCCCCC)CC(O)C(=O)NCCCCCCCC/C=C\\CCCCCCCC (stereo not shown) [Compound L0317]", "MEASURED RESULT": "2.78E+06"}
{"COMPOUND": "CCCCCCCCC(CCCCCC)C(=O)OCCCCCCOC(=O)C(O)CN(CCCN(C)CCCN(CC(O)C(=O)OCCCCCCOC(=O)C(CCCCCC)CCCCCCCC)CC(O)C(=O)OCCCCCCOC(=O)C(CCCCCC)CCCCCCCC)CC(O)C(=O)OCCCCCCOC(=O)C(CCCCCC)CCCCCCCC (stereo not shown) [Compound L0295]", "MEASURED RESULT": "2.38E+07"}
{"COMPOUND": "CCCCCCCC/C=C\\CCCCCCCCNC(=O)C(O)CN(CCN(C)CCN(CC(O)C(=O)NCCCCCCCC/C=C\\CCCCCCCC)CC(O)C(=O)NCCCCCCCC/C=C\\CCCCCCCC)CC(O)C(=O)NCCCCCCCC/C=C\\CCCCCCCC (stereo not shown) [Compound L0299]", "MEASURED RESULT": "7.84E+05"}
{"COMPOUND": "CCCCCCCCCCCCNCC(O)CN(CCCCCN(C)CCCCCN(CC(O)CNCCCCCCCCCCCC)CC(O)C(=O)NCCCCCCCCCCCC)CC(O)C(=O)NCCCCCCCCCCCC (stereo not shown) [Compound L0303]", "MEASURED RESULT": "7.60E+06"}
{"COMPOUND": "CCCCCCCCCCOC(=O)C(O)CN(CCCN(CC(O)C(=O)OCCCCCCCCCC)CC(O)C(=O)OCCCCCCCCCC)CCCN(CC(O)C(=O)OCCCCCCCCCC)CC(O)C(=O)OCCCCCCCCCC (stereo not shown) [Compound L0339]", "MEASURED RESULT": "1.17E+07"}
